Field: Avg % Deletion. Provide a value for each of the sequences that follow.
System: TTR
assayExplanation: TTR editing in primary cyno hepatocytes electroporated with Spy Cas9 protein and dgRNAs (Tables 10, 11)
Assay type: cell-based, cynomolgus monkey
condition: Table 10; primary cyno hepatocytes electroporated with Spy Cas9 protein (RNP) and dgRNAs
Numbers only, in %.

Below are worked cases with known answers.
[
  {
    "constructSequence": "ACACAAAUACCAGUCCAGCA (tested as dual guide RNA, chemistry not given here) [CR003339]",
    "propertyName": "Avg % Deletion",
    "observedMeasurement": 4.02
  },
  {
    "constructSequence": "UGUAGAAGGGAUAUACAAAG (tested as dual guide RNA, chemistry not given here) [CR003365]",
    "propertyName": "Avg % Deletion",
    "observedMeasurement": 0.97
  },
  {
    "constructSequence": "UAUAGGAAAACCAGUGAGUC (tested as dual guide RNA, chemistry not given here) [CR005305]",
    "propertyName": "Avg % Deletion",
    "observedMeasurement": 0.15
  },
  {
    "constructSequence": "GGAGUAGGGGCUCAGCAGGG (tested as dual guide RNA, chemistry not given here) [CR003382]",
    "propertyName": "Avg % Deletion",
    "observedMeasurement": 2.33
  },
  {
    "constructSequence": "GUGAGUCUGGAGAGCUGCAU (tested as dual guide RNA, chemistry not given here) [CR003360]",
    "propertyName": "Avg % Deletion",
    "observedMeasurement": 0.42
  }
]

Items follow; give Avg % Deletion for each.
1. AAUAGGAGUAGGGGCUCAGC (tested as dual guide RNA, chemistry not given here) [CR003384]
2. GGGAUUGGUGACGACAGCCG (tested as dual guide RNA, chemistry not given here) [CR003390]

Result:
1.25
0.39

----------
Field: Avg % Insert. Provide a value for each of the sequences that follow.
System: TTR
assayExplanation: TTR editing in primary human hepatocytes transfected with Spy Cas9 mRNA and dgRNAs (Table 9)
Type: cell-based
condition: dgRNA co-transfected with Spy Cas9 mRNA (SEQ ID NO:2)
One number for each entry, in %.

Below are worked cases with known answers.
[
  {
    "constructSequence": "UCCACUCAUUCUUGGCAGGA (tested as dual guide RNA, chemistry not given here) [CR005298]",
    "Avg % Insert (%)": 4.13
  },
  {
    "constructSequence": "ACGUGUCUUCUCUACACCCA (tested as dual guide RNA, chemistry not given here) [CR005302]",
    "Avg % Insert (%)": 33.67
  },
  {
    "constructSequence": "AGCCGUGGUGGAAUAGGAGU (tested as dual guide RNA, chemistry not given here) [CR005299]",
    "Avg % Insert (%)": 8.93
  },
  {
    "constructSequence": "UCACAGAAACACUCACCGUA (tested as dual guide RNA, chemistry not given here) [CR005300]",
    "Avg % Insert (%)": 27.60
  },
  {
    "constructSequence": "AGGCAGUCCUGCCAUCAAUG (tested as dual guide RNA, chemistry not given here) [CR003348]",
    "Avg % Insert (%)": 2.30
  }
]

Items follow; give Avg % Insert for each.
1. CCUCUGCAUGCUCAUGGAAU (tested as dual guide RNA, chemistry not given here) [CR003370]
2. AGUCCCUCAUUCCUUGGGAU (tested as dual guide RNA, chemistry not given here) [CR003392]

Result:
1. 2.33
2. 2.37
